Reported melting point values for the following molecules.

Here's what some known entries look like.
given_smiles	melting point
CCCCc1nc2nn(CC)cc2c2nc(-c3ccc(OC)cc3)nn12	127 to 128 °C
CCCCc1nc2ccc(Cl)cc2c2nc(-c3ccc(F)cc3)nn12	147.5 to 150 °C
CCCCc1nc2c(cnn2C)c2nc(-c3ccc(Cl)cc3)nn12	147.5 to 148.5 °C
CCCCCc1nc2ccccc2c2nc(-c3ccc(Cl)cc3)nn12	118 to 119.5 °C
CCCCc1nc2nncc-2c2nc(-c3ccc(O)cc3)[nH]n12	> 280 °C

Consider the additional molecule presented here.
Note to self: melting point recorded for CCCCc1nc2c(cnn2Cc2ccccc2)c2nc(-c3ccccc3)nn12 was 108 to 109 °C

* * *

measured_metric: melting point

Examples with answers:
given_smiles	value
CCCCc1nc2nn(CCO)cc2c2nc(-c3ccc(C)cc3)nn12	171 to 173 °C
CCCCc1nc2ccc(Cl)cc2c2nc(-c3ccc(C)cc3)nn12	141 to 143 °C
CCCCc1nc2nn(CC(=O)OCC)cc2c2nc(-c3ccccc3)nn12	136 to 137 °C

Next up:
So for CCCCc1nc2nncc-2c2nc(-c3ccccc3OC)[nH]n12 , the logged melting point turned out to be 157 to 160 °C

* * *

Each item that follows carries a reported melting point.

For orientation, consider the following solved cases.
given_smiles	melting point
COC(=O)CCCc1nc2ccccc2c2nc(-c3ccc(Br)cc3)nn12	125 to 126 °C
CCCCCc1nc2ccccc2c2nc(-c3ccc(F)cc3)nn12	133.5 to 134 °C
CCCCc1nc2nn(Cc3ccccc3)cc2c2nc(-c3ccccc3)nn12	159 to 160 °C
CCCCc1nc2ccccc2c2nc(-c3cccc(OC)c3)nn12	118 to 119 °C
CCCCc1nc2nn(CCO)cc2c2nc(-c3ccc(F)cc3)nn12	202 to 203 °C

Turning now to a further compound:
Record CCCCc1nc2c(cnn2CCC)c2nc(-c3ccc(F)cc3)nn12 , field melting point: 105.5 to 106 °C

* * *

Each entry below carries its reported melting point.

Examples with answers:
given_smiles	melting point
CCOc1ccc(-c2nc3c4ccccc4nc(CC)n3n2)cc1	153 to 154 °C
COC(=O)CCCc1nc2ccccc2c2nc(-c3ccc(F)cc3)nn12	167 to 168 °C
CCCCc1nc2ccccc2c2nc(-c3ccc(OCCC)cc3)nn12	128 to 129 °C

Per the records, this molecule ( CCCCc1nc2c(cnn2CCO)c2nc(-c3ccc(Cl)cc3)nn12 ) has melting point equal to 164 to 164.5 °C

Reported melting point for CCCCc1nc2c(cnn2CCO)c2nc(-c3ccccc3)nn12 was 132 to 133 °C

The molecule CCCCc1nc2nn(CCC)cc2c2nc(-c3ccc(Cl)cc3)nn12 showed melting point equal to 137 to 138 °C

* * *

measured_metric: melting point

Value of melting point reported for the compound CCCCc1nc2c(cnn2C)c2nc(-c3ccccc3)nn12 is 172 to 173 °C

Looking up CCCCCc1nc2ccccc2c2nc(-c3ccc(C)cc3)nn12 , I found its melting point recorded as 129.5 to 131 °C

So for CCCCc1nc2c(cnn2CCO)c2nc(-c3ccc(OC)cc3)nn12 , the logged melting point turned out to be 147.5 to 148.5 °C

For this compound ( O=C(O)CCCc1nc2ccccc2c2nc(-c3ccc(Br)cc3)nn12 ), measured melting point is 219 to 220 °C

The compound CCCCc1nc2ccccc2c2nc(-c3cc(OC)c(OC)c(OC)c3)nn12 showed melting point equal to 130 to 133 °C

Notebook: CCCCCc1nc2ccccc2c2nc(-c3ccccc3)nn12 , melting point read as 118 to 118.5 °C

Sample CCCCc1nc2nn(CCC)cc2c2nc(-c3ccc(C)cc3)nn12 ; melting point observed: 101.5 to 103.5 °C

Data point: CCCCc1nc2nncc-2c2nc(-c3ccco3)[nH]n12 ; melting point = 253 to 254.5 °C

Recorded melting point (compound COC(=O)CCCc1nc2ccccc2c2nc(-c3ccc(Cl)cc3)nn12 ): 128 to 129 °C

* * *

measured_metric: melting point

Please review the following examples before continuing.
molecule	measured_metric	value
COC(=O)CCCc1nc2ccc(Cl)cc2c2nc(-c3ccc(Cl)cc3)nn12 [Example 104]	melting point	145 to 146.5 °C
CCCCc1nc2ccccc2c2nc(-c3ccc(N(C)C)cc3)nn12 [Example 38]	melting point	148.5 to 150 °C
CCCCc1nc2c(cnn2CC(=O)OCC)c2nc(-c3ccccc3)nn12 [Example 128]	melting point	131.5 to 132.5 °C
CCCCc1nc2nncc-2c2nc(-c3ccc([N+](=O)[O-])cc3)[nH]n12 [Example 17]	melting point	279 to 280.5 °C

Note to self: melting point recorded for CCCCc1nc2nn(CCC)cc2c2nc(-c3ccc(OC)cc3)nn12 [Example 146] was 112 to 112.5 °C

Lab book: melting point of COC(=O)CCCc1nc2ccccc2c2nc(-c3ccc(C)cc3)nn12 [Example 100] noted as 120.5 to 121.5 °C

Kindly note the recorded melting point for CCCCc1nc2cc(Cl)ccc2c2nc(-c3ccc(F)cc3)nn12 [Example 80] , which is 185.5 to 186.5 °C

melting point reported for this molecule CCCCc1nc2cc(Cl)ccc2c2nc(-c3ccc(C)cc3)nn12 [Example 83] : 134 to 134.5 °C

Per the record, CCc1nc2nncc-2c2nc(-c3ccc(OC)cc3)[nH]n12 [Example 63] has melting point of 274 to 277 °C

* * *

Recorded measurements of melting point, one per entry

Use these answered entries as a reference point.
given_smiles	value
CCCCCc1nc2ccccc2c2nc(-c3ccc(Br)cc3)nn12	133 to 134 °C
CCCc1nc2ccc(Cl)cc2c2nc(-c3ccccc3)nn12	140.5 to 141.5 °C

Just so you know, measured melting point for CCCCc1nc2cc(OC)c(OC)cc2c2nc(-c3ccccc3)nn12 came out at 150 to 152 °C

The compound O=C(O)CCCc1nc2ccccc2c2nc(-c3ccc(F)cc3)nn12 showed melting point equal to 225 to 226 °C

Please fill in: melting point reported for CCCCCCc1nc2nncc-2c2nc(-c3ccccc3)[nH]n12 = 207 to 208 °C

Lookup result for CCCCc1nc2nn(C)cc2c2nc(-c3ccc(Cl)cc3)nn12 ; measured melting point: 203.5 to 205 °C

* * *

Listed below: melting point values for each entry.

// below: answered compounds
given_smiles	measured_metric	value
CCc1nc2ccccc2c2nc(-c3ccc(F)cc3)nn12	melting point	195 to 196 °C
COc1ccc(-c2nc3c4cnnc-4nc(CCCC(=O)O)n3[nH]2)cc1	melting point	247.5 to 249 °C
CCCCc1nc2ccccc2c2nc(-c3cccs3)nn12	melting point	147 to 149.5 °C
CCCCc1nc2nn(CCC)cc2c2nc(-c3ccccc3)nn12	melting point	107 to 108 °C
CCCCc1nc2nn(CCO)cc2c2nc(-c3ccc(Cl)cc3)nn12	melting point	189 to 190.5 °C

# compound CCc1nc2ccccc2c2nc(-c3ccc(Br)cc3)nn12 ; its melting point = 197 to 198 °C

So for CCCCc1nc2ccc(Br)cc2c2nc(-c3ccccc3)nn12 , the logged melting point turned out to be 129.5 to 132.5 °C

// field: melting point; key: CCCCc1nc2ccccc2c2nc(-c3ccc(SC)cc3)nn12 ; value = 140.5 to 141.5 °C

get_value(item= COC(=O)CCCc1nc2nncc-2c2nc(-c3ccc(Cl)cc3)[nH]n12 , readout=melting point) returns 194.5 to 196.5 °C

Lab note: measured melting point of CCc1nc2ccccc2c2nc(-c3ccc(C)cc3)nn12 was 147 to 148 °C

Value of melting point reported for the compound CCc1nc2ccc(Cl)cc2c2nc(-c3ccc(Cl)cc3)nn12 is 213 to 214 °C

melting point reported for this compound CCc1nc2nncc-2c2nc(-c3ccc(Cl)cc3)[nH]n12 : > 280 °C

Looking up CCCCc1nc2c(cnn2CC(=O)O)c2nc(-c3ccccc3)nn12 , I see its melting point listed as 271 to 272.5 °C

Lab book: melting point of c1ccc(-c2nc3c4cnnc-4nc(-c4ccccc4)n3[nH]2)cc1 noted as 272.5 to 275 °C

// sample CCCCc1nc2c(cnn2C)c2nc(-c3ccc(C)cc3)nn12 , its melting point was 156 to 157 °C

Query CCCCc1nc2ccccc2c2nc(-c3cccc(Cl)c3)nn12 yields melting point of 129 to 131 °C

Entry CCCCc1nc2c(cnn2CC(=O)OCC)c2nc(-c3ccc(F)cc3)nn12 — recorded melting point = 139.5 to 140.5 °C

The reported melting point of the compound CCCCc1nc2ccccc2c2nc(-c3ccccc3Cl)nn12 was 104.5 to 105.55 °C

Value of measured melting point for the entry CCCCc1nc2nn(CCC)cc2c2nc(-c3ccc(F)cc3)nn12 : 106.5 to 107.5 °C

Looking up O=C(O)CCCc1nc2ccccc2c2nc(-c3ccccc3)nn12 , I found its melting point recorded as 211 to 211.5 °C
